Biological target: Proteasome Macropain subunit MB1 (Homo sapiens, UniProt P28074)
Sequence (P28074 whole entry): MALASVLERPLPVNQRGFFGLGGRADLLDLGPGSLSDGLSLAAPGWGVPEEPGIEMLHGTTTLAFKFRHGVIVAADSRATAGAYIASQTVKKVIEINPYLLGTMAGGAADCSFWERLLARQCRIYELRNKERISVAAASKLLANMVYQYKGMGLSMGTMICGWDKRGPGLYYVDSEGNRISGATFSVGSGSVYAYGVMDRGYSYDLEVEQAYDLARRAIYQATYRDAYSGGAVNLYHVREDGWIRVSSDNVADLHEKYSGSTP
Assay: Inhibition of chymotrypsin-like activity of proteasome beta 5 subunit in HEK-293T cell lysates using BODIPY-BODIPY-TMR-epoxomicin as probe after 1 hr by SDS-PAGE analysis
Measured IC50 by item
observationType: IC50 (nM)

CC(C)C[C@H](NC(=O)[C@H](Cc1ccccc1)N=[N+]=[N-])C(=O)N[C@@H](CC(C)C)C(=O)N[C@H](/C=C/S(C)(=O)=O)Cc1ccncc1: 1500
CC(C)C[C@H](NC(=O)[C@H](Cc1ccc(CN)cc1)NC(=O)[C@H](Cc1ccccc1)N=[N+]=[N-])C(=O)N[C@H](/C=C/S(C)(=O)=O)Cc1ccc(N)cc1: 630
CC(C)C[C@H](NC(=O)[C@H](Cc1ccccc1)NC(=O)[C@H](Cc1ccccc1)N=[N+]=[N-])C(=O)N[C@H](/C=C/S(C)(=O)=O)Cc1ccccc1: 110
CC(C)C[C@H](NC(=O)[C@H](Cc1ccccc1)N=[N+]=[N-])C(=O)N[C@@H](CC(C)C)C(=O)N[C@H](/C=C/S(C)(=O)=O)Cc1ccc(N)cc1: 1100
CC(C)C[C@@H](/C=C/S(C)(=O)=O)NC(=O)[C@H](CC(C)C)NC(=O)[C@H](Cc1ccc(N)cc1)NC(=O)[C@H](Cc1ccccc1)N=[N+]=[N-]: 93
CC(C)C[C@H](NC(=O)[C@H](Cc1ccc(CN)cc1)NC(=O)[C@H](Cc1ccccc1)N=[N+]=[N-])C(=O)N[C@H](/C=C/S(C)(=O)=O)Cc1ccncc1: 2400
CC(C)C[C@@H](/C=C/S(C)(=O)=O)NC(=O)[C@H](CC(C)C)NC(=O)[C@H](Cc1ccc(CN)cc1)NC(=O)[C@H](Cc1ccccc1)N=[N+]=[N-]: 480
CC(C)C[C@@H](/C=C/S(C)(=O)=O)NC(=O)[C@H](CC(C)C)NC(=O)[C@H](Cc1ccncc1)NC(=O)[C@H](Cc1ccccc1)N=[N+]=[N-]: 160

----------
species on record: Homo sapiens; experiment: Selectivity ratio of IC50 for chymotrypsin-like activity of human proteasome beta 5 subunit to IC50 for trypsin-like activity of human proteasome beta 2 subunit
observationType: Ratio IC50

CC(C)C[C@H](NC(=O)[C@H](Cc1ccc(CN)cc1)NC(=O)[C@H](Cc1ccccc1)N=[N+]=[N-])C(=O)N[C@H](/C=C/S(C)(=O)=O)Cc1ccncc1: 6.5
CC(C)C[C@H](NC(=O)[C@H](Cc1ccc(CN)cc1)NC(=O)[C@H](Cc1ccccc1)N=[N+]=[N-])C(=O)N[C@H](/C=C/S(C)(=O)=O)Cc1ccc(N)cc1: 6.3
CC(C)C[C@H](NC(=O)[C@H](Cc1ccccc1)NC(=O)[C@H](Cc1ccccc1)N=[N+]=[N-])C(=O)N[C@H](/C=C/S(C)(=O)=O)Cc1ccccc1: 0.04
CC(C)C[C@H](NC(=O)[C@H](Cc1ccccc1)N=[N+]=[N-])C(=O)N[C@@H](CC(C)C)C(=O)N[C@H](/C=C/S(C)(=O)=O)Cc1ccc(N)cc1: 0.73
